B1: HDV Ribozyme (parent)
chain: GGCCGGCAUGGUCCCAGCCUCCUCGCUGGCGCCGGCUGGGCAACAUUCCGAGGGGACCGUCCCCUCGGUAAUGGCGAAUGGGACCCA

# Variants of: B1
# Assay explanation: self-cleavage, relative activity (ratio to wild type); higher = more cleavage; co-transcriptional
Listing: self-cleavage of selected variants
Reply: number alone, nothing else.

# annotated cases, reported self-cleavage shown
> print(dat)
   mutant.label  property.name  numeric.readout
1     C33A C36U  self-cleavage           0.0396
2          A71U  self-cleavage             0.93
3     C41U A42G  self-cleavage            0.872
4     U12C C36A  self-cleavage            0.142
5     U12G C13U  self-cleavage            0.931
6      A8U U79C  self-cleavage            0.177

Now for the variant whose self-cleavage we want.
GET /values?readout=self-cleavage&item= C3A G54A
0.369
